Attribute: shrunken log2 fold change
Test system: Escherichia coli TOP10
Assay: shrunken log2 fold change of peptide-encoding DNA abundance (4.5 h post-induction vs induction); higher = less antimicrobial activity (less host growth inhibition)
Conditions: time post-induction: 4.5 h; library: site-saturation at positions 5, 18, 19, 20
Kindly provide the number alone.

INPUT: Please provide the recorded shrunken log2 fold change for `RRIRWRPPRLPRPRPRPKSTPRP` , tested on Escherichia coli TOP10.
OUTPUT: 0.126

INPUT: Another sequence: `RRIRERPPRLPRPRPRPNAFPRP`
OUTPUT: -0.568

Continuing:
INPUT: Requested read-out shrunken log2 fold change, target or system Escherichia coli TOP10, entry `RRIRYRPPRLPRPRPRPFPPPRP`;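 note: peptides expressed intracellularly from a pBAD plasmid library in pooled LB shake-flask culture, induced with 0.3% L-arabinose, DNA abundance read by NGS, three biological replicates, DESeq2 with apeglm shrinkage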
OUTPUT: -0.809

INPUT: Can you handle `RRIRHRPPRLPRPRPRPAAMPRP` next?
OUTPUT: 0.191

INPUT: Then `RRIRYRPPRLPRPRPRPFSEPRP` ?
OUTPUT: 0.41
